Source: PubChem BioAssay

Reported values of cell count for individual entries
assay: viability loss with induced miR-34 in A549 – imaging, A549 dox-inducible miR-34, nuclei and caspase counts, primary screen (AID 1347080); settings: A549 miR-34 inducible, Hoechst nuclei count, 48 h; measured here: total cells without miR-34 induction
The response must contain the number and no unit.

COMPOUND	cell count
O=C(O)CCC/C=C\C[C@@H]1C(=O)C[C@@H](O)[C@@H]1/C=C/[C@@H](O)CC1CCCCC1	5800

input: Field request: cell count | item: `O=C(NC1CCN(Cc2ccccc2)CC1)c1ccc(I)cc1`
output: 7800

input: Same read-out for `CCN(CC)CCCCC1CCN(CC(=O)N2c3ccccc3C(=O)Nc3cccnc32)CC1` ?
output: 9110

input: Same read-out for `CCCCCC(=O)/C=C/[C@@H]1[C@H](C/C=C\CCCC(=O)O)[C@H](O)C[C@H]1O` ?
output: 5690

input: Same read-out for `O=S(=O)(c1cccc2cnccc12)N1CCNCC1` ?
output: 8760

input: Same read-out for `COc1cc(C=O)c([N+](=O)[O-])cc1OC` ?
output: 9460

input: Same read-out for `CC(C)(C)c1nc(-c2cccc(NS(=O)(=O)c3c(F)cccc3F)c2F)c(-c2ccnc(N)n2)s1` ?
output: 8520

input: Same read-out for `CN(C)c1ccc(-c2nc3ncc(Cl)c(N4CCN(CC(=O)Nc5nccs5)CC4)c3[nH]2)cc1` ?
output: 2000

input: Same read-out for C=C[C@H]1CN2CCC1C[C@@H]2C(O)c1ccnc2ccc(OC)cc12 (stereo not given in full) ?
output: 5880

input: Same read-out for `COc1cc(/C=C/C(=O)N2CCCCCC2)cc(OC)c1OC` ?
output: 7910

====

assay: viability loss in pontine glioma line – cell-based, SU-DIPG-XXV, MIPE5.0, CellTiter-Glo, qHTS, dose response (AID 1347065); conditions: CellTiter-Glo ATP luminescence;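 also: cells exposed to compound for 48 hours before ATP readout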
Results filed as inconclusive are left out. Calls of active or inactive are those of the source. No cut-off is given here; in the data, nearly all actives have AC50 up to about 26 µM.
MEASUREMENT KIND: AC50

Take a look at these entries with their results.
COMPOUND	MEASUREMENT KIND	RESULT
Cc1cccc(-c2[nH]ncc2-c2ccc3ncccc3n2)n1	AC50	inactive
CC(C)C[C@@H](N)[C@H](O)C(=O)N[C@H](C(=O)N[C@H](C(=O)N[C@@H](CC(=O)O)C(=O)O)C(C)C)C(C)C	AC50	inactive
O=C(O)CCNc1cc(N2CCc3ccccc3CC2)nc(-c2ccccn2)n1	AC50	inactive
Cc1c[nH]c(/C=C2\C(=O)Nc3ccccc32)c1CCC(=O)O	AC50	10.5 µM (active)
Cc1cccc(CC(=O)N2CCc3c2ccc(-c2cn(C)c4ncnc(N)c24)c3F)n1	AC50	10.5 µM (active)

input: Field request: AC50 | item: `O=C(NOCCO)c1cc(CN2OCCCC2=O)c(F)c(F)c1Nc1ccc(I)cc1F`
output: 0.417 µM (active)

input: Same read-out for `CCN(C(=O)c1ccccc1OC)c1cc2c(cc1N1CCNC[C@H]1C)n(C)c(=O)n2C` ?
output: inactive

====

assay: drug combination growth inhibition, ovarian cancer – cell-based, oncology-focused library, rucaparib conditional, profiling panel (AID 1508598); conditions: patient-derived ovarian cancer cells, CellTiter-Glo viability, 144 h; at 0.000305 µM; OCI-P5x cells; with rucaparib 20 µM; 100% = cells with rucaparib alone
Active and inactive are the calls of the source.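 How the source made its calls: active means normalized viability below 100% at a tested concentration; inactive means the rest.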
Select the correct class. Options are class 1 = active, class 0 = inactive and nothing else.

Observe how each entry below is paired with its result.
COMPOUND STRUCTURE	QUALITATIVE LABEL
Cn1cc(-c2ccc3nnc(C(F)(F)c4ccc5ncccc5c4)n3n2)cn1	class 0
COCCOc1nc(-c2ccc(Cl)c(Cl)c2)n(-c2ccc(NC(=O)CCl)cc2)n1	class 0
Cc1ccc(F)c(NC(=O)Nc2ccc(-c3cccc4[nH]nc(N)c34)cc2)c1	class 1
Nc1ccccc1NC(=O)c1ccc(CNc2nccc(-c3cccnc3)n2)cc1	class 0
CS(=O)(=O)N1CCc2c(-c3cnc(N)nc3)nc(N3CCOCC3)nc21	class 0
Nc1ccc(-c2ccc3ncc4ccc(=O)n(-c5cccc(C(F)(F)F)c5)c4c3c2)cn1	class 1
CNC(=O)c1cc(Oc2ccc(NC(=O)Nc3cc(C(C)(C)C)nn3-c3ccc4ncccc4c3)c(F)c2)ccn1	class 0
Oc1cccc(-c2nc(N3CCOCC3)c3oc4ncccc4c3n2)c1	class 0
O=C(Nc1ccccc1-c1cn2c(CN3CCNCC3)csc2n1)c1cnc2ccccc2n1	class 0
Cc1csc(-c2nnc(Nc3ccc(Oc4ncccc4-c4ccnc(N)n4)cc3)c3ccccc23)c1	class 0

input: So what was the verdict on `CS(=O)(=O)N1CCN(Cc2cc3nc(-c4cccc5[nH]ncc45)nc(N4CCOCC4)c3s2)CC1` in this test?
output: class 1

input: Same read-out for `CCn1c(-c2nonc2N)nc2c(C#CC(C)(C)O)ncc(OC[C@H]3CCCNC3)c21` ?
output: class 1

input: Same read-out for `CC(C)Oc1ccc(C(=O)N[C@H](CNC(=O)CN(C)C)Cc2ccc(-c3cn4cccc([C@H](C)O)c4n3)cc2)cc1Cl` ?
output: class 0

input: Same read-out for `Cc1ccc([C@@H]2O[C@H](CO)[C@@H](O)[C@H](O)[C@H]2O)cc1Cc1ccc(-c2ccc(F)cc2)s1` ?
output: class 1

====

assay: viability loss in pontine glioma line – cell-based, SU-DIPG-XXV, MIPE5.0, CellTiter-Glo, qHTS, dose response (AID 1347065); settings: CellTiter-Glo ATP luminescence;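 also: cells exposed to compound for 48 hours before ATP readout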
Results filed as inconclusive are left out. Active and inactive are the calls of the source. No cut-off is given here; in the data, nearly all actives have AC50 up to about 26 µM.
Select the correct class. Options are Y (active), N (inactive) and nothing else.

Observe how each entry below is paired with its result.
COMPOUND STRUCTURE	QUALITATIVE LABEL
N#Cc1cc(NC(=O)Nc2nnc(-c3ccncc3)s2)ccc1-c1cn[nH]c1	N
Cc1ccc(-c2ccc(C)cn2)nc1	N
CCc1cc(/C(C)=N/OCc2ccc(C3CCCCC3)c(C(F)(F)F)c2)ccc1CN1CC(C(=O)O)C1	Y
CC1(C)CN(C(=O)c2ccc(-c3cccc4nc(NC(=O)C5CC5)nn34)cc2)C1	N
CC(C)n1cc(-c2ccc3c(c2)N(C)CC3)c2c(NS(=O)(=O)c3ccn(C)n3)ccnc21	N

input: So what was the verdict on `Cc1c(C(=O)Nc2ccc(Oc3ccnc4[nH]cc(-c5ccccc5)c34)c(F)c2)c(=O)n(-c2ccc(F)cc2)n1C` in this test?
output: Y

input: Same read-out for `COc1ccc(S(=O)(=O)N(CCO)c2ccccc2CN(C)C/C=C/c2ccc(Cl)cc2)cc1` ?
output: Y

input: Same read-out for `CCc1cnn2c(NCc3ccc[n+]([O-])c3)cc(N3CCCC[C@H]3CCO)nc12` ?
output: Y

input: Same read-out for `CC(C)C(=O)OCC(=O)[C@@]12O[C@H](C3CCCCC3)O[C@@H]1C[C@H]1[C@@H]3CCC4=CC(=O)C=C[C@]4(C)[C@H]3[C@@H](O)C[C@@]12C` ?
output: Y

====

assay: viability loss with induced miR-34 in A549 – imaging, A549 dox-inducible miR-34, nuclei and caspase counts, primary screen (AID 1347080); conditions: A549 miR-34 inducible, Hoechst nuclei count, 48 h; measured here: relative caspase fold change +Dox/-Dox
Record satisfied whenever fold change is at 0.8 or higher; record not satisfied when lower.

MOLECULE	QUALITATIVE LABEL
CN(C)c1ccc(C(=O)NCCCCCC(=O)NO)cc1	satisfied
CN(C1CCc2c(c3ccccc3n2CC(=O)O)C1)S(=O)(=O)c1ccc(F)cc1 (stereo unspecified)	satisfied
CC/C=C\C/C=C\C/C=C\C/C=C\CCCCC(=O)OC	satisfied
C#CCCC[C@@H](O)CCCCCCCCCCC(=O)O	satisfied

input: Hello, I need to know if `Cc1cc(-c2ccc(CC(=O)Nc3ccc(-c4cccnc4)cc3)cc2)ccn1` has measured fold change not below 0.8. Thanks!
output: satisfied

input: Same read-out for `Cc1cccc(CC(=O)N2CCc3c2ccc(-c2cn(C)c4ncnc(N)c24)c3F)n1` ?
output: satisfied

input: Same read-out for `CCCCC/C=C\C/C=C\C/C=C\C/C=C\CCCC(=O)C(F)(F)F` ?
output: satisfied

====

experiment: drug combination growth inhibition, ovarian cancer – cell-based, oncology-focused library, rucaparib conditional, profiling panel (AID 1508598); settings: patient-derived ovarian cancer cells, CellTiter-Glo viability, 144 h; at 0.00122 µM; OCI-P5x cells; with rucaparib 20 µM; stronger effect = lower value; 100% = cells with rucaparib alone
MEASUREMENT KIND: viability (%)
Output spec: scalar in %, unitless text.

COMPOUND	UNITS SYMBOL	viability
CN1CCN(c2ccc3nc(-c4c(N)c5c(F)cccc5[nH]c4=O)[nH]c3c2)CC1	%	118
NC(=O)C1CCCc2c1[nH]c1ccc(Cl)cc21 (stereo not given)	%	109
Cc1ccc(C(=O)Nc2ccc(CN3CCN(C)CC3)c(C(F)(F)F)c2)cc1C#Cc1cnc2cccnn12	%	103
Cc1ccc(C(=O)N(CCCN)[C@@H](c2nc3cc(Cl)ccc3c(=O)n2Cc2ccccc2)C(C)C)cc1	%	78.5
O=C(O)c1ccc(O)c2ncccc12	%	101
C[C@@H](Oc1cc(-c2cnn(C3CCNCC3)c2)cnc1N)c1c(Cl)ccc(F)c1Cl	%	103
Nc1ccn([C@@H]2O[C@H](CO)[C@@H](O)C2(F)F)c(=O)n1	%	55.8
COc1ncc(-c2ccc3nccc(-c4ccnnc4)c3c2)cc1NS(=O)(=O)c1ccc(F)cc1F	%	67.8

input: Field request: viability | item: `COc1c(C)cnc(Cn2cnc3c(Cl)nc(N)nc32)c1C`
output: 116

input: Same read-out for `CN1CCN(c2nc(C3=C(c4c[nH]c5ccccc45)C(=O)NC3=O)c3ccccc3n2)CC1` ?
output: 102

input: Same read-out for `COc1ccc(-c2ccc3c(N4CCOC[C@@H]4C)nc(N4CCOC[C@@H]4C)nc3n2)cc1CO` ?
output: 94.9

input: Same read-out for `CC(C)(C)c1cnc(CSc2cnc(NC(=O)C3CCNCC3)s2)o1` ?
output: 103

input: Same read-out for `COc1ccc(-n2c(SCCCN3C(=O)c4cccc5cccc(c45)C3=O)nnc2-c2ccncc2)cc1` ?
output: 101

input: Same read-out for `CC(=O)c1c(C)c2cnc(Nc3ccc(N4CCNCC4)cn3)nc2n(C2CCCC2)c1=O` ?
output: 94.1
